Sourced from the NIST ThermoML archive (doi:10.1021/je500647a)

# viscosity listing for each entry below
# protocol: mn = molality of the nth substance listed, in mol/kg
# study.conditions: 303.15 K; 101 kPa; Liquid; Capillary tube (Ostwald / Ubbelohde) method; m1 = 0.05
± gives the expanded uncertainty stated by the source.

- compound: "O=C[C@H](O)[C@H](O)[C@H](O)CO [D-ribose] + O"
  viscosity: "0.8071 ± 0.007 mPa·s"
- compound: "NCC(=O)O [2-aminoacetic acid] + O"
  viscosity: "0.8017 ± 0.0068 mPa·s"
- compound: "CC(C)C[C@H](N)C(=O)O [L-leucine] + O"
  viscosity: "0.8021 ± 0.0069 mPa·s"
- compound: "OC[C@H]1OC(OC[C@H]2OC(O[C@]3(CO)O[C@H](CO)[C@@H](O)[C@@H]3O)[C@H](O)[C@@H](O)[C@@H]2O)[C@H](O)[C@@H](O)[C@H]1O (stereo partly drawn) [D-(+)-raffinose] + O"
  viscosity: "0.8259 ± 0.0072 mPa·s"

* * *

# viscosity listing for each entry below
# protocol: mn = molality of the nth substance listed, in mol/kg
# study.conditions: 313.15 K; 101 kPa; Liquid; Capillary tube (Ostwald / Ubbelohde) method; m1 = 0.1

- compound: "NCC(=O)O [2-aminoacetic acid] + O"
  viscosity, mPa·s: 0.6582
- compound: "OC[C@H]1OC(OC[C@H]2OC(O[C@]3(CO)O[C@H](CO)[C@@H](O)[C@@H]3O)[C@H](O)[C@@H](O)[C@@H]2O)[C@H](O)[C@@H](O)[C@H]1O (stereo partly drawn) [D-(+)-raffinose] + O"
  viscosity, mPa·s: 0.698
- compound: "CC(C)C[C@H](N)C(=O)O [L-leucine] + O"
  viscosity, mPa·s: 0.6533
- compound: "O=C[C@H](O)[C@H](O)[C@H](O)CO [D-ribose] + O"
  viscosity, mPa·s: 0.6642

* * *

# viscosity listing for each entry below
# protocol: mn = molality of the nth substance listed, in mol/kg
# study.conditions: 298.15 K; 101 kPa; Liquid; Capillary tube (Ostwald / Ubbelohde) method; m1 = 0.05

- compound: "CC(C)C[C@H](N)C(=O)O [L-leucine] + O"
  units.text: "mPa·s"
  viscosity: 0.8936
- compound: "OC[C@H]1OC(OC[C@H]2OC(O[C@]3(CO)O[C@H](CO)[C@@H](O)[C@@H]3O)[C@H](O)[C@@H](O)[C@@H]2O)[C@H](O)[C@@H](O)[C@H]1O (stereo partly drawn) [D-(+)-raffinose] + O"
  units.text: "mPa·s"
  viscosity: 0.9281
- compound: "NCC(=O)O [2-aminoacetic acid] + O"
  units.text: "mPa·s"
  viscosity: 0.8947
- compound: "O=C[C@H](O)[C@H](O)[C@H](O)CO [D-ribose] + O"
  units.text: "mPa·s"
  viscosity: 0.9032

* * *

# viscosity listing for each entry below
# protocol: mn = molality of the nth substance listed, in mol/kg
# study.conditions: 313.15 K; 101 kPa; Liquid; Capillary tube (Ostwald / Ubbelohde) method; m1 = 0.05

- molecule: "O=C[C@H](O)[C@H](O)[C@H](O)CO [D-ribose] + O"
  units.text: "mPa·s"
  viscosity: 0.657
- molecule: "OC[C@H]1OC(OC[C@H]2OC(O[C@]3(CO)O[C@H](CO)[C@@H](O)[C@@H]3O)[C@H](O)[C@@H](O)[C@@H]2O)[C@H](O)[C@@H](O)[C@H]1O (stereo partly drawn) [D-(+)-raffinose] + O"
  units.text: "mPa·s"
  viscosity: 0.6657
- molecule: "NCC(=O)O [2-aminoacetic acid] + O"
  units.text: "mPa·s"
  viscosity: 0.6563
- molecule: "CC(C)C[C@H](N)C(=O)O [L-leucine] + O"
  units.text: "mPa·s"
  viscosity: 0.6571

* * *

# viscosity listing for each entry below
# protocol: mn = molality of the nth substance listed, in mol/kg
# study.conditions: 298.15 K; 101 kPa; Liquid; Capillary tube (Ostwald / Ubbelohde) method; m1 = 0.1

- compound: "CC(C)C[C@H](N)C(=O)O [L-leucine] + O"
  units.text: "mPa·s"
  viscosity: 0.8992
- compound: "O=C[C@H](O)[C@H](O)[C@H](O)CO [D-ribose] + O"
  units.text: "mPa·s"
  viscosity: 0.9168
- compound: "NCC(=O)O [2-aminoacetic acid] + O"
  units.text: "mPa·s"
  viscosity: 0.9011
- compound: "OC[C@H]1OC(OC[C@H]2OC(O[C@]3(CO)O[C@H](CO)[C@@H](O)[C@@H]3O)[C@H](O)[C@@H](O)[C@@H]2O)[C@H](O)[C@@H](O)[C@H]1O (stereo partly drawn) [D-(+)-raffinose] + O"
  units.text: "mPa·s"
  viscosity: 0.9824
